The measurements presented in this section are drawn from the supplement of paper PMC9732359.

Experiment Description: protein stability index of a GFP-peptide fusion (yeast GPS) (PSI 1-4); higher = more stable; sorted into four equal gates, so the index is relative within each strain
Experimental Conditions: doa10∆
Let's look at some sequences and their measured protein stability index.
Lab note: jot the number down without any unit.

Input line: Form field: reported protein stability index of ASLKKMEETEQKKIQIN [SMC3]
Output line: 2.33

Input line: Also check ETATLIMNELYRMKGGR [SMC3]
Output line: 3.07

Input line: Now the sequence KDLDGWQVIITDDQGRV [SIR3]
Output line: 3.15

Input line: Repeat for the following sequence: GLKYALATGNWGEQKKA [RPB2]
Output line: 2.58

Input line: Follow-up entry: YAVAEQCPVKSAEDQLY [QCR2]
Output line: 3.22

Further cases:
Input line: Name the reported protein stability index value associated with the sequence VIKLAKYPDYFPEWKKS [ARP9]
Output line: 3

Input line: Moving on to FVIGVIIGTFSDSYKVS [RRP40]
Output line: 1.43

Input line: Record: KLLATSTKIIMLLLNDS [SRB8]
Output line: 1.57

###

Measured protein stability index of individual entries
Experiment Description: protein stability index of a GFP-peptide fusion (yeast GPS) (PSI 1-4); higher = more stable; sorted into four equal gates, so the index is relative within each strain
Experimental Conditions: ubr1∆

Some sequences with recorded protein stability index:
Input line: What value of measured protein stability index is listed for VMRNEIRITSLQGDLTF [SIR4] ?
Output line: 2.68

Input line: Field entry: FGQDVSPMINSTSSGKV [SNM1]
Output line: 3.02

Input line: Again, but for GGALDNPFEDDMDGVDF [BRN1]
Output line: 3.41

Input line: Entry SSLLYTYDENDDFFKEL [ESC2] please
Output line: 2.87

Input line: Next sequence: RTKSQVIEEDYDDEQNT [IRR1]
Output line: 1.83

Continuing:
Input line: For VEQTAEVTIEDALKVVL [RPS12] , what is its reported protein stability index?
Output line: 3.21

###

Experiment Description: protein stability index of a GFP-peptide fusion (yeast GPS) (PSI 1-4); higher = more stable; sorted into four equal gates, so the index is relative within each strain
Experimental Conditions: pdr5∆
List of protein stability index values.
I'd appreciate a reply containing only the number, no unit.

Input line: Tell me the measured protein stability index of VVNSNFAKEHNATVNLA [YJR042W/NUP85] , please.
Output line: 2.32

Input line: Then this sequence: PVDHPHGGGNHQHIGKA [RPL2A]
Output line: 3.31

Input line: Another sequence to check: QRETYDSNESDDDVTPS [YLR335W/NUP2]
Output line: 2.43

Input line: Same question for NSLFYLKWSACTSLMDI [IRR1] please.
Output line: 2.31

Continuing:
Input line: Need protein stability index of LKAQITSLKCLVNRKPI [SNF2] , thanks.
Output line: 1.77

Input line: Same thing, different sequence: LESLKPIDDTMTLLTDS [MTW1]
Output line: 2.95

Input line: Field entry: DPSRELNVIIDQLAVSP [YCS4]
Output line: 3.04

Input line: Then KNAGLGFKTPKTAIEGS [RPS11A] ?
Output line: 3.12

Input line: What about this sequence? ESFAELMTKLNSFKLFK [RPC17]
Output line: 2.71

Input line: Cool, now NGDNLYGNDEEVLFYED [RPN4]
Output line: 3.22

Input line: Also LAEEKIRAAGGVVELIA [RPL28] , if possible.
Output line: 3.07

Input line: Could you do the same for MMMQQQLKNVQLDSYLV [MED2] , please?
Output line: 2.45

Input line: Item: MFNPLHESYCLPMDTNL [YMR129W/POM152]
Output line: 2.83

Input line: For REASKDNVDFILSNVDL [RPB3] then?
Output line: 3.3

###

Documented protein stability index across a set of sequences
Experiment Description: protein stability index of a GFP-peptide fusion (yeast GPS) (PSI 1-4); higher = more stable; sorted into four equal gates, so the index is relative within each strain
Experimental Conditions: ubr1∆
Field format: numeric only.

The following sequences have reported results that may help.
Input line: Would you mind telling me what protein stability index value was observed for IVRPAKGVATTREKVLE [RRP46] ?
Output line: 3.09

Input line: Entry QESSSLRLLEVTDDDRL [POP8] please
Output line: 1.65

Here is another sequence to look at.
Input line: Which protein stability index reading was recorded for the sequence ALQILNSGIIPGNRNAD [FAS2] ?
Output line: 2.8

###

Experiment Description: protein stability index of a GFP-peptide fusion (yeast GPS) (PSI 1-4); higher = more stable; sorted into four equal gates, so the index is relative within each strain
Experimental Conditions: ubr1∆
Metric: protein stability index

Field: example entries. Status: answers known.
Input line: What protein stability index value was documented for this sequence, ETRNGKVKNQGADVTNT [YCS4] ?
Output line: 3.18

Input line: Another sequence to look at: KTSNIESVPIYSIDEFF [BRR2]
Output line: 2.13

Input line: Then what about the sequence YVPTRNTFNYDVKISND [RPN4] ?
Output line: 2.25

Input line: Then this sequence: VGRLWDQTFPINCNKET [ECM29]
Output line: 3.09

Input line: Try this sequence too: AVAGLTADAEILINTAR [PRE9]
Output line: 3.09

Input line: Record: KLTILQEGIEAIATTVI [RET1]
Output line: 2.78

Input line: One more sequence: TGNNLYDRNSNNNHKDK [SWI1]
Output line: 3.12

Input line: Quick one: NAEAKGLDATKLYVSHI [RPL17A]
Output line: 3.03

---
Input line: Look up protein stability index: SVFYNIANMVLPPEKIY [SIR2]
Output line: 1.55

Input line: Queued: LWINYIKELLNITKNLK [POP4]
Output line: 1.78

Input line: Same read-out for ECENEIKTKQMSLKKCQ [SMC2] ?
Output line: 3.32

Input line: Further, for VTKQSELNSSEDILEDM [SMC1] ?
Output line: 3.18

Input line: // repeat for NLNDAGLALQLFKKLKE [RPN2] and report
Output line: 3.19

Input line: One more sequence: QAQQAQQAQARLQQGRR [SNF2]
Output line: 3.02

Input line: Similarly, KMFQDIRLSKILEDDFA [CDC53] ?
Output line: 2.93

###

Attribute: protein stability index
Experiment Description: protein stability index of a GFP-peptide fusion (yeast GPS) (PSI 1-4); higher = more stable; sorted into four equal gates, so the index is relative within each strain
Experimental Conditions: doa10∆
I only need the number, thanks.

Below, each entry is followed by its recorded protein stability index result.
Input line: Please report the recorded protein stability index for PDYYMIIKYPVAFDNIN [SNF2] .
Output line: 2.78

Input line: Proceed to TENDIKALQSIGQLIGE [RPT4]
Output line: 3.21

Input line: Check RGYTCQFVDMVLPNTAL [FAS1] too.
Output line: 1.75

Input line: Then ISKKIIGMSLLMRTFLY [SIR3] ?
Output line: 1.79

Input line: Do the same for STSNTPSPPNVIITDGT [YDL088C/ASM4] please
Output line: 2.79

Continuing:
Input line: Bench note: what protein stability index did IQFGAKNMFEKKASKVT [ISW2] show?
Output line: 2.66

Input line: Try the sequence EDVLVNQILMSVNFFVS [RPL1A]
Output line: 1.91

Input line: Note, next up: QDSILIIYPRSQTTLVQ [ARP9]
Output line: 2.6

Input line: What do you have for DMSKILVDQGFNYSGKD [RET1] ?
Output line: 3.36

Input line: Now give it for KMFQDIRLSKILEDDFA [CDC53] too.
Output line: 2.94

Input line: Entry DRVKVIECFKPGDIVRA [CSL4] please
Output line: 2.66

Input line: Would you kindly repeat that for HFKKPDITVHGEQIIVH [RRP45] ?
Output line: 1.43

Input line: Thanks! And QVLVCTATLAWGVNLPA [BRR2] ?
Output line: 1.53

Input line: Note, next up: LISGAGANPRVLSTFTA [RPN10]
Output line: 2.16

###

Experiment Description: protein stability index of a GFP-peptide fusion (yeast GPS) (PSI 1-4); higher = more stable; sorted into four equal gates, so the index is relative within each strain
Experimental Conditions: san1∆
Metric: protein stability index
Please respond with just the number, no unit label.

Here is how some sequences turned out for protein stability index.
Input line: Could you share which protein stability index value was measured for GCVSYSPAALKQLASLK [YMR153W/NUP53] ?
Output line: 2.08

Input line: And for REASKDNVDFILSNVDL [RPB3] ?
Output line: 3.38

Input line: What do you have for STVIEEFTLFMDIAERI [YGL172W/NUP49] ?
Output line: 2.47

---
Input line: I have this sequence here, VSNPIRKVFKPSQGMVV [FAS1] , and I need its recorded protein stability index.
Output line: 2.87

Input line: Now try EENSQGNILDFNLNLPP [REC8] .
Output line: 3.18

Input line: Try this sequence too: HARGGGAISAVAATNTP [SRP54]
Output line: 3.07

Input line: Here is the next sequence: HTKSDERSELLRLFNAP [SNF2]
Output line: 2.78

Input line: Try this sequence next: IESIVNLAPKLRNVFLG [GRR1]
Output line: 1.26

Input line: # iterate: ALEDEERDEILTLTDSQ [BRR2]
Output line: 3.23

Input line: Now this one: DSFIFDGTAKEVGDEAD [MED4]
Output line: 3.38
